Listed here: items and their measured Kd.
molecular target: T1, recombinant His-tagged human PD-1 (Acro Biosystems) (human, UniProt Q15116 25-167); assay: SPR Carterra LSA;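 also: antibodies or fusion proteins amine-coupled on an HC30M chip, soluble His-tagged human or cynomolgus PD-1 titrated over them, non-regenerative kinetics, constants fitted from titration curves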
T1 construct: His-tagged; also called hPD-1
T1 sequence (Q15116 25-167 limits assumed): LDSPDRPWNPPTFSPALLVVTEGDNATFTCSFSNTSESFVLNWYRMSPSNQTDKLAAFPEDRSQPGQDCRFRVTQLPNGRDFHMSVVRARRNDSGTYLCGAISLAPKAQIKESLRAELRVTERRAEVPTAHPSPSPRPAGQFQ
Your answer is read as nM, so omit the unit and give the number.

These solved cases illustrate the format of a correct answer.
**Q:** Look up Kd for this binder: Anti-PD-1 clone J110 hIgG1 (antibody, V domains shown) VH: DVQLQESGPGLVKPSQSLSLTCTVTGHSITSDYAWNWIRQFPGDKLEWMGYISYSGYTTYNPSLKSRVSITRDTSKNQFFLQLNSVTTEDTATYFCARDLDYGPWFAYWGQGTLVTVSA VL: DIQMTQSPASLSASVGETVTLTCRASENIHNYLAWYQQKQGKSPQLLVYNVKTLADGVPSRFSGSGSGTQYSLKINSLQPEDFGSYYCQHFWSSPWTFGGGTKVEIKR
**A:** 10

**Q:** Look up Kd for this binder: A2-hIgG4 (antibody, V domains shown) VH: DVQLVESGGGLVQPGGSLRLSCAASGFTFDISAMSWVRQAPGKGLEWVSTISGSAYSTYYADSVKGRFTISRDNSKSTLYLQMNSLRAEDTAVYYCAREIFSDYWGLGTLVTVSS VL: QSVLTQPPSASGTPGQRVTISCSGSTSNIGRESVYWYQQLPGTAPKLLIYSNVQRPSGAPNRFSGSKSGTSASLAISGLQSEDEADYYCGTWDDSLNGWVFGGGTKLTVLG
**A:** 36

**Q:** Look up Kd for this binder: Abz1mod-hIgG4 (antibody, V domains shown) VH: QVQLVQSGSELKKPGASVKVSCKASGYTFTSYAMHWVRQAPGQGLEWMGYISPFTGRATYAQGFTGRFVFSLDTSVSTAYLQISSLKAEDTAVYYCARDYDYRYYYAMDYWGQGTTVTVSS VL: EIVLTQSPDFQSVTPKEKVTITCRASQSIPPQFLHWYQQKPDQSPKLLIKAASQRASGVPSRFSGSGSGTDFTLTINSLEAEDAATYYCHQFHSSPLTFGGGTKLEIKR
**A:** 0.426

Next:
**Q:** Look up Kd for this binder: G12-hIgG4 (antibody, V domains shown) VH: DSLVESGGGLVQPGGSLRLSCAASGFTFDISAMSWVRQAPGKGLEWVSTISGSAYSTYYADSVKGRFTISRDNSKSTLYLQMNSLRAEDTAVYYCAREIFSDYWGLGTLVTVSS VL: QSVLTQPPSASGTPGQRVTISCSGSTSNIGRESVYWYQQLPGTAPKLLIYLNSQRPSGVPDRFSGSKSGTSASLAISGLQSEDVADYYCGTWDDSLNGWVFGGGTKLTVLG
**A:** 50
